TESTED_TARGET: human RIP1 kinase domain (2-375) (Homo sapiens (Human))
METHOD_SUMMARY: biochemical
Type: biochemical
CONDITION_NOTES: Table 3; apparent Ki (Morrison tight-binding fit); 50 nM RIP1 kinase domain, 50 uM ATP, 2 hours incubation; read-out: Ki
pKi: −log10 of the molar value.
Each record here notes measured pKi.

[
  {
    "COMPOUND": "CN1C(=O)[C@@H](NC(=O)c2n[nH]c3ccc(Cl)cc23)COc2ccccc21",
    "pKi": 7.68
  },
  {
    "COMPOUND": "Cc1cc2n(n1)CC[C@H](NC(=O)c1ncn3ccc(C(F)(F)F)cc13)C(=O)N2C (stereo in doubt)",
    "pKi": 6.27
  },
  {
    "COMPOUND": "Cc1cc2n(n1)CCC(NC(=O)c1ncn(Cc3ccccc3)n1)C(=O)N2C (stereo not drawn)",
    "pKi": 7.17
  },
  {
    "COMPOUND": "CCC1CCc2n[nH]c(C(=O)N[C@H]3COc4ccccc4N(C)C3=O)c2C1 (stereo partly drawn)",
    "pKi": 7.89
  },
  {
    "COMPOUND": "CN1C(=O)[C@@H](NC(=O)c2ncn3ccc(C(F)(F)F)cc23)CCn2nccc21",
    "pKi": 6.64
  },
  {
    "COMPOUND": "CN1C(=O)[C@@H](NC(=O)c2ncn(Cc3ccccc3)n2)CCn2nccc21",
    "pKi": 7.57
  }
]

---

TESTED_TARGET: human RIP1 kinase domain (2-375) (Homo sapiens (Human))
METHOD_SUMMARY: biochemical
Type: biochemical
CONDITION_NOTES: tight-binding apparent inhibition constant; human RIP1 kinase domain (2-375) 50 nM, 50 uM ATP, 2 hours; read-out: Ki
pKi: −log10 of the molar value.
MEASUREMENT_NAME: pKi

[
  {
    "COMPOUND": "CN1C(=O)[C@@H](NC(=O)c2ncn(CC3CCCCO3)n2)CCn2nc(C3CC3)cc21 (stereo partly shown)",
    "ENDPOINT_VALUE": 6.54
  },
  {
    "COMPOUND": "CN1C(=O)[C@@H](NC(=O)c2nc3n(n2)[C@@H](c2c(F)cccc2F)CCC3)CCn2nccc21 (racemic)",
    "ENDPOINT_VALUE": 7.06
  },
  {
    "COMPOUND": "CN1C(=O)[C@@H](NC(=O)c2nc3cccc(C4=CCOCC4)n3n2)CCn2nccc21",
    "ENDPOINT_VALUE": 6.98
  },
  {
    "COMPOUND": "CN1C(=O)[C@H](NC(=O)c2ncn(Cc3cc(F)ccc3F)n2)CCn2cncc21",
    "ENDPOINT_VALUE": 7.59
  },
  {
    "COMPOUND": "Cc1cccnc1Cn1cnc(C(=O)N[C@H]2CCn3nccc3N(C)C2=O)n1",
    "ENDPOINT_VALUE": 6.80
  },
  {
    "COMPOUND": "CN1C(=O)[C@@H](NC(=O)c2ncc3c(n2)[C@@]2(CCCOC2)OC3)COc2ccccc21 (racemic)",
    "ENDPOINT_VALUE": 6.95
  },
  {
    "COMPOUND": "CN1C(=O)[C@@H](NC(=O)c2nc3n(n2)CCC3c2ccccc2)CCn2nccc21 (stereo partly shown)",
    "ENDPOINT_VALUE": 7.43
  },
  {
    "COMPOUND": "CN1C(=O)[C@@H](NC(=O)c2nc3n(n2)[C@@H](c2ccccc2F)CC3)COc2ccccc21",
    "ENDPOINT_VALUE": 8.40
  },
  {
    "COMPOUND": "Cc1cc2n(n1)CC[C@H](NC(=O)c1ncn(C[C@H]3C[C@@H](C)C3)n1)C(=O)N2C",
    "ENDPOINT_VALUE": 6.06
  },
  {
    "COMPOUND": "CN1C(=O)[C@@H](NC(=O)c2ncc3c(n2)C(C)(C)S(=O)(=O)C3)COc2ccccc21",
    "ENDPOINT_VALUE": 5.57
  },
  {
    "COMPOUND": "CN1C(=O)[C@@H](NC(=O)c2ncc3cnn(-c4ccccn4)c3n2)COc2ccccc21",
    "ENDPOINT_VALUE": 6.80
  },
  {
    "COMPOUND": "CN1C(=O)[C@@H](NC(=O)c2ncc3c(n2)[C@]2(CCCOC2)OC3)COc2ccccc21 (racemic)",
    "ENDPOINT_VALUE": 6.92
  },
  {
    "COMPOUND": "O=C(N[C@H]1COc2cc(F)cc(F)c2NC1=O)c1nc2cccc(C3CCOCC3)n2n1",
    "ENDPOINT_VALUE": 7.56
  },
  {
    "COMPOUND": "Cc1ncn2c1N(C)C(=O)[C@H](NC(=O)c1ncn(Cc3ccccc3)n1)CC2",
    "ENDPOINT_VALUE": 7.44
  },
  {
    "COMPOUND": "CN1C(=O)[C@@H](NC(=O)c2ncc3c(n2)[C@](C)(CC(F)(F)F)OC3)COc2ccccc21 (racemic)",
    "ENDPOINT_VALUE": 7.36
  },
  {
    "COMPOUND": "CN1C(=O)[C@H](NC(=O)c2ncn(Cc3c(F)cccc3F)n2)CCn2cncc21",
    "ENDPOINT_VALUE": 7.30
  }
]

---

TESTED_TARGET: human RIP1 kinase domain (2-375) (Homo sapiens (Human), UniProt Q13546)
Sequence (Q13546 2-375): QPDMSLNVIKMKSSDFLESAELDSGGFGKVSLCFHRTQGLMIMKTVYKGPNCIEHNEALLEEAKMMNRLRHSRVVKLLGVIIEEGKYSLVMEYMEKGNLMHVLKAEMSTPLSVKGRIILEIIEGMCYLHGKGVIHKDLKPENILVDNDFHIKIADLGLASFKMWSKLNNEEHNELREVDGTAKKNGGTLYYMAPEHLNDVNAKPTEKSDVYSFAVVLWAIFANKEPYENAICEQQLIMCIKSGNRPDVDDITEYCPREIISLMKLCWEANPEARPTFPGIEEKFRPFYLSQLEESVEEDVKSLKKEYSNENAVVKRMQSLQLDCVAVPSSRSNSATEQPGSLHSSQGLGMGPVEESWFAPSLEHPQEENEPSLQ
METHOD_SUMMARY: biochemical
Type: biochemical
CONDITION_NOTES: human RIP1 kinase domain (2-375), 50 uM ATP, 2 hours incubation, Transcreener ADP assay; read-out: RIP1 Ki
Doc: threshold 200 nM (exclusive). Items with Ki beneath it return Yes; others return No.

[
  {
    "COMPOUND": "CN1C(=O)[C@@H](NC(=O)c2cc3c(cn2)cnn3CC(F)(F)F)COc2ccccc21",
    "QUALITATIVE_LABEL": "No"
  },
  {
    "COMPOUND": "CN1C(=O)[C@@H](NC(=O)c2nnc3ccc(C4CC4)cn23)COc2ccccc21",
    "QUALITATIVE_LABEL": "No"
  },
  {
    "COMPOUND": "CN1C(=O)[C@@H](NC(=O)c2cc3c(cn2)COC3(C)CC(F)(F)F)CCn2nccc21 (some centres unmarked)",
    "QUALITATIVE_LABEL": "No"
  },
  {
    "COMPOUND": "Cc1cc2n(n1)CC[C@H](NC(=O)c1ncn(Cc3ccccc3)n1)C(=O)N2C",
    "QUALITATIVE_LABEL": "Yes"
  },
  {
    "COMPOUND": "CC(C)n1ncc2cnc(C(=O)N[C@H]3COc4ccccc4N(C)C3=O)cc21",
    "QUALITATIVE_LABEL": "Yes"
  },
  {
    "COMPOUND": "CN1C(=O)C(NC(=O)c2ncn(Cc3ccccc3)n2)CCn2nc3ccccc3c21 (centres unmarked)",
    "QUALITATIVE_LABEL": "Yes"
  },
  {
    "COMPOUND": "CN1C(=O)[C@@H](NC(=O)c2nnn3c2CC(c2ccccc2)C3)CCn2nccc21 (some centres unmarked)",
    "QUALITATIVE_LABEL": "No"
  },
  {
    "COMPOUND": "CC(C)n1ncc2c1OC[C@H](NC(=O)c1ncn(Cc3ccccc3)n1)C(=O)N2",
    "QUALITATIVE_LABEL": "No"
  }
]

---

Each record here notes measured Ki.
TESTED_TARGET: human RIP1 kinase domain (2-375) (Homo sapiens (Human), UniProt Q13546)
METHOD_SUMMARY: biochemical
Assay type: biochemical
CONDITION_NOTES: tight-binding apparent inhibition constant; human RIP1 kinase domain (2-375) 50 nM, 50 uM ATP, 2 hours; read-out: Ki

[
  {
    "QUERY_SMILES": "CC(C)c1cccc2nc(C(=O)N[C@H]3COc4cc(F)cc(F)c4NC3=O)nn12",
    "Ki": "3 nM"
  },
  {
    "QUERY_SMILES": "O=C(N[C@H]1COc2cc(F)cc(F)c2NC1=O)c1nc2n(n1)CCO[C@H]2c1ccccc1",
    "Ki": "9.4 nM"
  },
  {
    "QUERY_SMILES": "CN1C(=O)[C@@H](NC(=O)c2ncn(Cc3ccccc3F)n2)CCn2nc(C(F)(F)F)cc21",
    "Ki": "20 nM"
  },
  {
    "QUERY_SMILES": "CCc1cccc2nc(C(=O)N[C@H]3COc4ccccc4N(C)C3=O)nn12",
    "Ki": "6.68 nM"
  }
]
